- ASSAY SYSTEM: Torsin-1A-interacting protein 2 (Homo sapiens) (UniProt Q8NFQ8)
- Sequence (Q8NFQ8 whole entry, looked up): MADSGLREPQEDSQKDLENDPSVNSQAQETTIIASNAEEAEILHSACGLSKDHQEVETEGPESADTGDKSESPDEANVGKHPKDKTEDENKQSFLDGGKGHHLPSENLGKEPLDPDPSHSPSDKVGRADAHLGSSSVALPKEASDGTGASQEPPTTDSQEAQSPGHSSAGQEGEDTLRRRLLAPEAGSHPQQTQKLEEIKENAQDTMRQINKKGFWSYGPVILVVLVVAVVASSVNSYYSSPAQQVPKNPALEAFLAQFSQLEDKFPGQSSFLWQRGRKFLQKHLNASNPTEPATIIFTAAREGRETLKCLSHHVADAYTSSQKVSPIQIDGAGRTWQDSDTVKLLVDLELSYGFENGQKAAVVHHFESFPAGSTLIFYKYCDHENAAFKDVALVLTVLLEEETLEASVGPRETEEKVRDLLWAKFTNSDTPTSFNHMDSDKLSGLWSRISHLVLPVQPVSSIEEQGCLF
- TEST METHOD NOTES: LULL1 binders on small-molecule microarray, primary screen, cell lysate, human LULL1 lysate, 635/667 nm fluorescence (AID 1092);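 further: probe is lysate of COS7 cells overexpressing human LULL1; score merges per-feature 667 nm fluorescence with signal-to-noise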
- CONDITION: hLULL1 lysate binding, 635 nm fluorescence, higher = more signal
MEASURED ENDPOINT: composite z-score
// keep it numeric: no unit symbol after the value

Sample records with composite z-score:
COCCOC(=O)N1C(=O)[C@@]2(c3cc(C#CCNC(N)=O)ccc31)[C@H](c1ccc(OCCO)cc1)N1[C@H](c3ccccc3)[C@H](c3ccccc3)OC(=O)[C@H]1[C@@H]2C(N)=O; 1.92
COc1ccc(C(O)C2C=CC3C(=O)N(c4ccccc4)C(=O)C3N2Nc2ccc(C(C)C)cc2)c2ccccc12 (stereo unspecified); 3.61
O=C(NCC(O)CO)[C@@]1(CCS(=O)(=O)c2ccccc2)COC(c2ccc(OCCCO)cc2)=N1 (stereo partly specified); 3.86
C=CCOC(=O)[C@H]1[C@@H]2C(=O)O[C@@H](c3ccccc3)[C@@H](c3ccccc3)N2[C@@H](c2ccc(OCCOC(=O)[C@H]3C[C@H]4C(=O)N[C@@H](CCCCNC(C)=O)C(=O)N4[C@H]3c3cccc(OCCO)c3)cc2)[C@]12C(=O)Nc1ccc(I)cc12; 2.18
CCOC(=O)C[C@H]1[C@H](OC(=O)c2ccccc2-c2ccccc2)[C@@H](NC(=O)c2ccc3ccccc3n2)c2cc(OCCCO)ccc2N1C(=O)c1ccccc1; 1.46

We next turn to a different molecule, shown below.
Consider the molecule CCCNC(=O)[C@@]1(Sc2ccc(C)cc2)CC(=O)N(C2CCCCC2)[C@@H]1c1ccc(CO)cc1I and give its measured composite z-score. 2.44
